Reference source: paper PMC8262137

targetOfAssay: P-glycoprotein (Pgp; Abcb1a, MDR3) (Mus musculus)
Sequence (P21447 whole entry): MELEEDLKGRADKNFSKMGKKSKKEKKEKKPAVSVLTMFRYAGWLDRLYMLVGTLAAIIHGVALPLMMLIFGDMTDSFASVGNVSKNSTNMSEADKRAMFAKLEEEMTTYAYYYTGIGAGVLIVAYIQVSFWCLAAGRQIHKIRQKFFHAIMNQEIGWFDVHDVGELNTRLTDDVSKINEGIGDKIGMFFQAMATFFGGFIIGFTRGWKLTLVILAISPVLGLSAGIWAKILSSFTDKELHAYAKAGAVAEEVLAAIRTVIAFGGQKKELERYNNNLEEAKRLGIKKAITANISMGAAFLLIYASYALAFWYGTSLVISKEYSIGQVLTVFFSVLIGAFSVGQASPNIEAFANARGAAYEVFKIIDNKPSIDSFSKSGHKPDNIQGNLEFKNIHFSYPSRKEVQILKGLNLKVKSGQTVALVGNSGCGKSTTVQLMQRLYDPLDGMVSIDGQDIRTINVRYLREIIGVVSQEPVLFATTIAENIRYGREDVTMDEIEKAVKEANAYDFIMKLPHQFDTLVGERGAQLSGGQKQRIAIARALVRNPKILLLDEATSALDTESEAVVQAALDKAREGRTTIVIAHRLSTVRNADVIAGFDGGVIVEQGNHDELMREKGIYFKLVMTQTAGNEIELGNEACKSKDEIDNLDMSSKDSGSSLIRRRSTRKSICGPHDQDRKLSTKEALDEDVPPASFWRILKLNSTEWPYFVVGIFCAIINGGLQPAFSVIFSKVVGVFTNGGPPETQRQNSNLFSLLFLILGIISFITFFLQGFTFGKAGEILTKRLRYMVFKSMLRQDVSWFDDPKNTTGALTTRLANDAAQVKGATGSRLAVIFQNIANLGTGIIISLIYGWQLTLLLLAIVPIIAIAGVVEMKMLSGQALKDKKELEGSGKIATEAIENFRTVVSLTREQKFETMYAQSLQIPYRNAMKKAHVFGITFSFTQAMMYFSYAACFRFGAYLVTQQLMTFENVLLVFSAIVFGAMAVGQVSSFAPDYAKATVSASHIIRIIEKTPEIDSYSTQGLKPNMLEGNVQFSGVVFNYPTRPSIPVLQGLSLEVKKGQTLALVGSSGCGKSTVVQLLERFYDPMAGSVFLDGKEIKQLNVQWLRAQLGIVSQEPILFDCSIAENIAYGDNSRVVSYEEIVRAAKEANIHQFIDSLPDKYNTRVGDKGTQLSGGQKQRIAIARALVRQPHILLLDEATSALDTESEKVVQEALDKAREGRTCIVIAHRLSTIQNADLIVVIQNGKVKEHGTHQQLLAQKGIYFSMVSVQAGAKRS
assayInfo: intrinsic protein fluorescence quenching
readout: Kd (µM)
Express it in µM; write the number only.

{"compound": "COc1cccc2c1C(=O)c1c(O)c3c(c(O)c1C2=O)C[C@@](O)(C(C)=O)C[C@@H]3O[C@H]1C[C@H](N)[C@H](O)[C@H](C)O1 [DNR, daunorubicin]", "unitAbbreviation": "µM", "Kd": 16.3}

// next entry
Please look at COc1cccc2c1C(=O)c1c(O)c3c(c(O)c1C2=O)C[C@@](O)(C(=O)CO)C[C@@H]3O[C@H]1C[C@H](N)[C@H](O)[C@H](C)O1 [DOX, doxorubicin] and tell me its recorded Kd on P-glycoprotein (Pgp; Abcb1a, MDR3) (Mus musculus).
16.9
